Data provenance: paper PMC6863848

assay: Ex vivo biodistribution and tumor targeting; conditions: female, BALB/c nu/nu, mouse, remaining carcass (whole sample), iv, 45 pmol per mouse, total radioactivity
# reported tissue uptake dose at 24 h; entries follow

# Molecule, Units Label, tissue uptake dose at 24 h
data = [
    ("CC(C)C[C@H](NC(=O)C[C@H](O)[C@H](CC(C)C)NC(=O)[C@H](Cc1c[nH]cn1)NC(=O)CNC(=O)[C@@H](NC(=O)[C@H](C)NC(=O)[C@H](Cc1c[nH]c2ccccc12)NC(=O)[C@H](CCC(N)=O)NC(=O)[C@@H](Cc1ccccc1)NC(=O)COCCOCCNC(=O)CCC(C(=O)O)N1CCN(CC(=O)O)CCN(CC(=O)O)CC1)C(C)C)C(N)=O (stereo partly shown)", "%ID", 0.1),
    ("CC(C)C[C@H](NC(=O)C[C@H](O)[C@H](CC(C)C)NC(=O)[C@H](Cc1c[nH]cn1)NC(=O)CNC(=O)[C@@H](NC(=O)[C@H](C)NC(=O)[C@H](Cc1c[nH]c2ccccc12)NC(=O)[C@H](CCC(N)=O)NC(=O)[C@@H](Cc1ccccc1)NC(=O)COCCOCCNC(=O)CN1CCN(CC(=O)O)CCN(CC(=O)O)CCN(CC(=O)O)CC1)C(C)C)C(N)=O", "%ID", 0.2),
    ("CC(C)C[C@H](NC(=O)C[C@H](O)[C@H](CC(C)C)NC(=O)[C@H](Cc1c[nH]cn1)NC(=O)CNC(=O)[C@@H](NC(=O)[C@H](C)NC(=O)[C@H](Cc1c[nH]c2ccccc12)NC(=O)[C@H](CCC(N)=O)NC(=O)[C@@H](Cc1ccccc1)NC(=O)COCCOCCNC(=O)CN1CCN(CC(=O)O)CCN(CC(=O)O)CC1)C(C)C)C(N)=O", "%ID", 0.18),
    ("CC(C)C[C@H](NC(=O)C[C@H](O)[C@H](CC(C)C)NC(=O)[C@H](Cc1c[nH]cn1)NC(=O)CNC(=O)[C@@H](NC(=O)[C@H](C)NC(=O)[C@H](Cc1c[nH]c2ccccc12)NC(=O)[C@H](CCC(N)=O)NC(=O)[C@@H](Cc1ccccc1)NC(=O)COCCOCCNC(=O)CCC(C(=O)O)N1CCN(CC(=O)O)CCN(CC(=O)O)CCN(CC(=O)O)CC1)C(C)C)C(N)=O (stereo partly shown)", "%ID", 0.3),
]

###

test: Ex vivo biodistribution and tumor targeting; conditions: female, BALB/c nu/nu, mouse, liver, iv, 45 pmol per mouse, total radioactivity, Liver uptake, PC-3-xenografted BALB/c nu/nu mice, iv 25 kBq/45 pmol, 24 h pi, 4 mice per data point
Metric: tissue uptake at 24 h (%ID/g)

# Compound, Units Label, Measured Number
records = [
    ("CC(C)C[C@H](NC(=O)C[C@H](O)[C@H](CC(C)C)NC(=O)[C@H](Cc1c[nH]cn1)NC(=O)CNC(=O)[C@@H](NC(=O)[C@H](C)NC(=O)[C@H](Cc1c[nH]c2ccccc12)NC(=O)[C@H](CCC(N)=O)NC(=O)[C@@H](Cc1ccccc1)NC(=O)COCCOCCNC(=O)CN1CCN(CC(=O)O)CCN(CC(=O)O)CCN(CC(=O)O)CC1)C(C)C)C(N)=O", "%ID/g", 0.034),
    ("CC(C)C[C@H](NC(=O)C[C@H](O)[C@H](CC(C)C)NC(=O)[C@H](Cc1c[nH]cn1)NC(=O)CNC(=O)[C@@H](NC(=O)[C@H](C)NC(=O)[C@H](Cc1c[nH]c2ccccc12)NC(=O)[C@H](CCC(N)=O)NC(=O)[C@@H](Cc1ccccc1)NC(=O)COCCOCCNC(=O)CCC(C(=O)O)N1CCN(CC(=O)O)CCN(CC(=O)O)CC1)C(C)C)C(N)=O (stereo partly shown)", "%ID/g", 0.02),
    ("CC(C)C[C@H](NC(=O)C[C@H](O)[C@H](CC(C)C)NC(=O)[C@H](Cc1c[nH]cn1)NC(=O)CNC(=O)[C@@H](NC(=O)[C@H](C)NC(=O)[C@H](Cc1c[nH]c2ccccc12)NC(=O)[C@H](CCC(N)=O)NC(=O)[C@@H](Cc1ccccc1)NC(=O)COCCOCCNC(=O)CN1CCN(CC(=O)O)CCN(CC(=O)O)CC1)C(C)C)C(N)=O", "%ID/g", 0.025),
    ("CC(C)C[C@H](NC(=O)C[C@H](O)[C@H](CC(C)C)NC(=O)[C@H](Cc1c[nH]cn1)NC(=O)CNC(=O)[C@@H](NC(=O)[C@H](C)NC(=O)[C@H](Cc1c[nH]c2ccccc12)NC(=O)[C@H](CCC(N)=O)NC(=O)[C@@H](Cc1ccccc1)NC(=O)COCCOCCNC(=O)CCC(C(=O)O)N1CCN(CC(=O)O)CCN(CC(=O)O)CCN(CC(=O)O)CC1)C(C)C)C(N)=O (stereo partly shown)", "%ID/g", 0.04),
]

###

experiment: Ex vivo biodistribution and tumor targeting; conditions: female, BALB/c nu/nu, mouse, small intestine, iv, 45 pmol per mouse, total radioactivity, Sm. Int. uptake, PC-3-xenografted BALB/c nu/nu mice, iv 25 kBq/45 pmol, 3 h pi, 4 mice per data point

# Compound, tissue uptake at 3 h / %ID/g
records = [
    ("CC(C)C[C@H](NC(=O)C[C@H](O)[C@H](CC(C)C)NC(=O)[C@H](Cc1c[nH]cn1)NC(=O)CNC(=O)[C@@H](NC(=O)[C@H](C)NC(=O)[C@H](Cc1c[nH]c2ccccc12)NC(=O)[C@H](CCC(N)=O)NC(=O)[C@@H](Cc1ccccc1)NC(=O)COCCOCCNC(=O)CN1CCN(CC(=O)O)CCN(CC(=O)O)CCN(CC(=O)O)CC1)C(C)C)C(N)=O [DOTA]", 0.9),
    ("CC(C)C[C@H](NC(=O)C[C@H](O)[C@H](CC(C)C)NC(=O)[C@H](Cc1c[nH]cn1)NC(=O)CNC(=O)[C@@H](NC(=O)[C@H](C)NC(=O)[C@H](Cc1c[nH]c2ccccc12)NC(=O)[C@H](CCC(N)=O)NC(=O)[C@@H](Cc1ccccc1)NC(=O)COCCOCCNC(=O)CCC(C(=O)O)N1CCN(CC(=O)O)CCN(CC(=O)O)CCN(CC(=O)O)CC1)C(C)C)C(N)=O (stereo partly shown) [DOTAGA]", 0.13),
    ("CC(C)C[C@H](NC(=O)C[C@H](O)[C@H](CC(C)C)NC(=O)[C@H](Cc1c[nH]cn1)NC(=O)CNC(=O)[C@@H](NC(=O)[C@H](C)NC(=O)[C@H](Cc1c[nH]c2ccccc12)NC(=O)[C@H](CCC(N)=O)NC(=O)[C@@H](Cc1ccccc1)NC(=O)COCCOCCNC(=O)CN1CCN(CC(=O)O)CCN(CC(=O)O)CC1)C(C)C)C(N)=O [NOTA]", 0.098),
    ("CC(C)C[C@H](NC(=O)C[C@H](O)[C@H](CC(C)C)NC(=O)[C@H](Cc1c[nH]cn1)NC(=O)CNC(=O)[C@@H](NC(=O)[C@H](C)NC(=O)[C@H](Cc1c[nH]c2ccccc12)NC(=O)[C@H](CCC(N)=O)NC(=O)[C@@H](Cc1ccccc1)NC(=O)COCCOCCNC(=O)CCC(C(=O)O)N1CCN(CC(=O)O)CCN(CC(=O)O)CC1)C(C)C)C(N)=O (stereo partly shown) [NODAGA]", 0.3),
]

###

assay: Ex vivo biodistribution and tumor targeting; details: female, BALB/c nu/nu, mouse, pancreas, iv, 45 pmol per mouse, total radioactivity, Pancreas uptake, PC-3-xenografted BALB/c nu/nu mice, iv 25 kBq/45 pmol, 24 h pi, 4 mice per data point
# reported tissue uptake at 24 h; entries follow

# Compound, Units Label, tissue uptake at 24 h
measured = [
    ("CC(C)C[C@H](NC(=O)C[C@H](O)[C@H](CC(C)C)NC(=O)[C@H](Cc1c[nH]cn1)NC(=O)CNC(=O)[C@@H](NC(=O)[C@H](C)NC(=O)[C@H](Cc1c[nH]c2ccccc12)NC(=O)[C@H](CCC(N)=O)NC(=O)[C@@H](Cc1ccccc1)NC(=O)COCCOCCNC(=O)CN1CCN(CC(=O)O)CCN(CC(=O)O)CCN(CC(=O)O)CC1)C(C)C)C(N)=O", "%ID/g", 0.05),
    ("CC(C)C[C@H](NC(=O)C[C@H](O)[C@H](CC(C)C)NC(=O)[C@H](Cc1c[nH]cn1)NC(=O)CNC(=O)[C@@H](NC(=O)[C@H](C)NC(=O)[C@H](Cc1c[nH]c2ccccc12)NC(=O)[C@H](CCC(N)=O)NC(=O)[C@@H](Cc1ccccc1)NC(=O)COCCOCCNC(=O)CCC(C(=O)O)N1CCN(CC(=O)O)CCN(CC(=O)O)CCN(CC(=O)O)CC1)C(C)C)C(N)=O (stereo partly drawn)", "%ID/g", 0.028),
    ("CC(C)C[C@H](NC(=O)C[C@H](O)[C@H](CC(C)C)NC(=O)[C@H](Cc1c[nH]cn1)NC(=O)CNC(=O)[C@@H](NC(=O)[C@H](C)NC(=O)[C@H](Cc1c[nH]c2ccccc12)NC(=O)[C@H](CCC(N)=O)NC(=O)[C@@H](Cc1ccccc1)NC(=O)COCCOCCNC(=O)CCC(C(=O)O)N1CCN(CC(=O)O)CCN(CC(=O)O)CC1)C(C)C)C(N)=O (stereo partly drawn)", "%ID/g", 0.02),
]
